Overview of recorded inhibition for various molecules
biological target: Replicase polyprotein 1ab (Severe acute respiratory syndrome coronavirus 2); assay: Inhibition of SARS-CoV-2 main protease using Mca-AVLQSGFRK(Dnp)K as substrate at 40 uM preincubated with enzyme for 10 mins followed by substrate addition and measured every 30 secs for 10 mins by fluorescence based analysis; conditions: time 20.0 min

Example cases with answers are listed next.
>>> test_value("O=C(Cn1sc2c(F)cccc2c1=O)Nc1ccccc1")
"99.5%"
>>> test_value("COc1cccc2c(=O)n(CC(=O)Nc3ccccc3)sc12")
"-6.8%"
>>> test_value("O=C(Cn1sc2cc(F)ccc2c1=O)Nc1ccccc1")
"102%"
>>> test_value("COc1ccc(NC(=O)Cn2sc3cc(F)ccc3c2=O)cc1")
"99.3%"
>>> test_value("O=C(Cn1[nH]c2cc(F)ccc2c1=O)Nc1ccccc1")
"26.3%"

Any idea what its inhibition is? The molecule is O=C(Cn1sc2ccc(F)cc2c1=O)Nc1ccccc1
99.7%

Any idea what its inhibition is? The molecule is Nc1ccc2sn(CC(=O)Nc3ccccc3)c(=O)c2c1
99.8%

Any idea what its inhibition is? The molecule is O=C(Cn1sc2cc(F)ccc2c1=O)NCCc1ccccc1
100%

Any idea what its inhibition is? The molecule is Nc1cccc2c(=O)n(CC(=O)Nc3ccccc3)sc12
58.8%

Any idea what its inhibition is? The molecule is O=C(Cn1sc2cc(F)ccc2c1=O)Nc1ccc(Cl)cc1
95.7%

* * *

target: Replicase polyprotein 1ab (Severe acute respiratory syndrome coronavirus 2); experiment: Inhibition of SARS-CoV-2 main protease using Mca-AVLQSGFRK(Dnp)K as substrate preincubated with enzyme for 10 mins followed by substrate addition and measured every 30 secs for 10 mins by fluorescence based analysis
Experimental readout: pIC50
Give only the number. pIC50 is defined as minus log10 of concentration in molar units.

>>> test_value("O=C(Cn1sc2cccc(C(F)(F)F)c2c1=O)Nc1ccccc1")
6.65
>>> test_value("Nc1ccc2c(=O)n(CC(=O)Nc3ccccc3)sc2c1")
6.35
>>> test_value("CC(C)(C)c1ccc(NC(=O)Cn2sc3cc(F)ccc3c2=O)cc1")
6.51
>>> test_value("Nc1ccc2sn(CC(=O)Nc3ccccc3)c(=O)c2c1")
6.38
>>> test_value("O=C(Cn1sc2cc(F)ccc2c1=O)NC1CCCCC1")
6.80

Any idea what its pIC50 is? The compound is COc1ccc(NC(=O)Cn2sc3cc(F)ccc3c2=O)cc1
6.52

* * *

target: Replicase polyprotein 1ab (Severe acute respiratory syndrome coronavirus 2); experiment: Inhibition of SARS-CoV-2 RdRp
Overview of recorded IC50 for various compounds
Please state the number and follow it with the unit.

>>> test_value("O=C(Cn1sc2cc(F)ccc2c1=O)NC1CCCCC1")
"7.9 µM"

Any idea what its IC50 is? The compound is O=C(Nc1ccccc1)n1sc2cc(F)ccc2c1=O
15.3 µM

Any idea what its IC50 is? The compound is O=C(Cn1sc2cc(F)ccc2c1=O)Nc1ccccc1
6.4 µM

* * *

molecular target: Replicase polyprotein 1ab (Severe acute respiratory syndrome coronavirus 2, UniProt P0DTD1); assay: Inhibition of SARS-CoV-2 main protease using Mca-AVLQSGFRK(Dnp)K as substrate preincubated with enzyme for 10 mins followed by substrate addition and measured every 30 secs for 10 mins by fluorescence based analysis
Overview of recorded pIC50 for various molecules
Give only the number. pIC50 is defined as minus log10 of concentration in molar units.

Example cases with answers are listed next.
>>> test_value("O=C(Cn1sc2cc(F)ccc2c1=O)Nc1ccccc1Cl")
6.72
>>> test_value("O=C(Cn1sc2cc(F)ccc2c1=O)Nc1ccccc1")
6.72
>>> test_value("O=C(Cn1sc2cc(F)ccc2c1=O)NC1CCCC1")
6.40
>>> test_value("O=C(Cn1sc2c(F)cccc2c1=O)Nc1ccccc1")
6.48
>>> test_value("O=C(Cn1sc2cc(F)ccc2c1=O)Nc1cccc(C(F)(F)F)c1")
6.60

Consider now this further molecule.
Any idea what its pIC50 is? The molecule is O=C(Cn1sc2ccccc2c1=O)Nc1ccccc1
6.78
